All figures here come from patent US12012411B2.

assay explanation: in vitro
measurement parameters: African green monkey, uninfected quiescent Vero-B cells
Parameter: CC50 at 4 days. Scope: all listed entries.
observable: CC50 at 4 days

compound="COc1cccc(NC(C(=O)c2c[nH]c3c(OC)cccc23)c2ccccc2)c1 (stereo not shown) [CPD-222]" observable="CC50 at 4 days" result="> 129 µM"
compound="COc1cccc(NC(C(=O)c2c[nH]c3ccc(S(C)(=O)=O)cc23)c2ccccc2)c1 (stereo not shown) [CPD-229]" observable="CC50 at 4 days" result="> 115 µM"
compound="COc1cc(NC(C(=O)c2nn(C)c3ccccc23)c2cccnc2)cc(OC)c1 (stereo not shown) [CPD-279]" observable="CC50 at 4 days" result="> 124 µM"
compound="COc1cc(NC(C(=O)c2c[nH]c3nc(C)ccc23)c2ccccc2)cc(OC)c1 (stereo not shown) [CPD-232]" observable="CC50 at 4 days" result="> 125 µM"
compound="COc1cccc(NC(C(=O)c2c[nH]c3ccccc23)c2[nH]cnc2C)c1 (stereo not shown) [CPD-125]" observable="CC50 at 4 days" result="> 138 µM"
compound="COc1cccc(NC(C(=O)c2csc3ccccc23)c2ccccc2)c1 (stereo not shown) [CPD-193]" observable="CC50 at 4 days" result="> 133 µM"
compound="CN(Cc1ccco1)C(C(=O)c1c[nH]c2ccccc12)c1ccccc1 (stereo not shown) [CPD-189]" observable="CC50 at 4 days" result="> 145 µM"
compound="COc1cccc(NC(C(=O)c2c[nH]c3c(F)cccc23)c2cccnc2)c1 (stereo not shown) [CPD-153]" observable="CC50 at 4 days" result="> 133 µM"
compound="COc1cccc(NC(C(=O)c2nn(C)c3ccccc23)c2cc3ccccn3n2)c1 (stereo not shown) [CPD-273]" observable="CC50 at 4 days" result="> 122 µM"
compound="COc1cccc(NC(C(=O)c2nn(C)c3ccc(F)cc23)c2ccccc2)c1 (stereo not shown) [CPD-270]" observable="CC50 at 4 days" result="> 128 µM"
